Biological target: hDGAT2 (Homo sapiens (Human), UniProt Q96PD7)
Sequence (Q96PD7 whole entry): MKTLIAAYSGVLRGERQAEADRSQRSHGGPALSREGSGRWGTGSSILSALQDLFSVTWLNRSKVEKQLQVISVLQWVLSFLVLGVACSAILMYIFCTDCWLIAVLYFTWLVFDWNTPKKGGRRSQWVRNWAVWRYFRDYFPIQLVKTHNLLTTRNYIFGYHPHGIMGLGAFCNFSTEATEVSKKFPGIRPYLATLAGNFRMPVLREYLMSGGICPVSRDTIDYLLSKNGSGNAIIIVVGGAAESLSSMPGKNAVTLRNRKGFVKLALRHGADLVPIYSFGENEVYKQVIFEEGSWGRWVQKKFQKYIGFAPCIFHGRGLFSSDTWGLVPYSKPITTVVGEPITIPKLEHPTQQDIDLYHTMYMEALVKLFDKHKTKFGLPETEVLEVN
ASSAY_ENDPOINT: pIC50
One number for each entry, as −log10 of the molar value.

Here's what some known entries look like.
>>> value_reported("Cc1noc(C)c1CCNC(=O)c1ccc(-c2cccc(C(F)(F)F)c2)c2c1CN(C(=O)NC(C)(C)C)CC2")
5.70
>>> value_reported("Cc1cc(C)n(CCNC(=O)c2ccc(-c3cccc(C(F)(F)F)c3)c3c2CN(C(=O)NC(C)(C)C)CC3)n1")
6.30
>>> value_reported("CC(C)(C)NC(=O)N1CCc2c(-c3cccc(C(F)(F)F)c3)ccc(C(=O)NCCc3nc4cc(Cl)c(Cl)cc4[nH]3)c2C1")
7.80

// next entry
// query Provide pIC50 value for the following molecule: `CC(C)(C)NC(=O)N1CCc2c(-c3cccc(C(F)(F)F)c3)ccc(C(=O)NCCc3ncn[nH]3)c2C1`
// result 6.02
